assay: OD615 S. cerevisiae growth inhibition, permissive medium, pilot counter-assay, permissive growth control for S. cerevisiae lifespan shortening project (AID 705); conditions: OD615, 24 h, at 10 µM, active compounds read high
Entries and their measured growth inhibition follow.
Give just the numeric value; % need not be written.

Worked set:
{"molecule": "COc1ccc(NC(=O)C2CCN(S(=O)(=O)c3cccnc3)CC2)cc1Cl", "value": -8.66}
{"molecule": "COC(=O)C1=C(C)N(c2ccc(F)cc2)C(=O)C1", "value": -6.78}
{"molecule": "CC(=O)NCCOC(=O)Nc1ccncc1", "value": 4.58}
{"molecule": "CC(=O)Nc1ccc(S(=O)(=O)NCCc2cc3c(C)ccc(C)c3[nH]c2=O)cc1", "value": -10.1}
{"molecule": "O=C(NCCCN1CCN(c2ccccc2F)CC1)C1CCCN(S(=O)(=O)c2cnc[nH]2)C1 (centres undefined)", "value": 4.25}
{"molecule": "CCOC(=O)N1CCN(C(=O)c2oc3ccc(S(=O)(=O)N4CC(C)CC(C)C4)cc3c2C)CC1 (centres undefined)", "value": -2.93}
{"molecule": "CN(C)CCN(Cc1ccccc1)c1ccnc(N(C)C)c1C#N", "value": -13.2}
{"molecule": "Cc1ccc(OCC(O)CN2CCN(c3ccccc3)CC2)cc1 (centres undefined)", "value": -3.02}
{"molecule": "COc1ccc(-c2noc(Cc3ccccc3OC)n2)cc1", "value": -15.1}
{"molecule": "Clc1ccc(-n2ncc3c(NCC4CCCO4)ncnc32)cc1 (centres undefined)", "value": -7.04}

Looking up O=C(O)C1C2C=CC3(CN(Cc4ccco4)C(=O)C13)O2 (centres undefined) , I see its growth inhibition listed as -11.7

# growth inhibition of N#CC1=C(N)Oc2n[nH]c(-c3ccccc3)c2C1c1cccc(OC(=O)N2CCOCC2)c1 (centres undefined) = -12.4

Lookup result for `O=C(Nc1nc2cc3c(cc2s1)OCO3)C1=COCCO1` ; measured growth inhibition: -9.14

Given item `CC(=O)Nc1nc2c(F)cccc2s1` , the value recorded as its growth inhibition is -14.9

Summary for this molecule, COc1ccc(OC)c(C2CC(=O)N3CN(c4cccc(Cl)c4)CSC3=C2C#N)c1 (centres undefined) : growth inhibition is 1.31

Lab note: `Oc1ccc(Br)cc1-c1nc2cnccn2c1NC1CCCC1` gave growth inhibition of -11.9

What the record says about `c1cnn(-c2nc(N3CCOCC3)nc(N3CCOCC3)n2)c1` : growth inhibition is 0.06

Entry Cc1[nH]nc2c1C(c1ccccc1F)NC2=O (centres undefined) — recorded growth inhibition = -0.665

Summary for this molecule, `COc1ccccc1Nc1nc2ccccc2n1C` : growth inhibition is -11.6

Reported growth inhibition ( `O=S(=O)(c1cccs1)n1nnc2ccccc21` ) = -1.66
